Data credit: patent US5302602A

Entries annotated with measured inhibition at 1 µM
- ASSAYED_SYSTEM: TXA2 receptor (Cavia porcellus)
- Construct: To a washed platelet suspension (1×10^8 platelets) of guinea pig; endogenous in cells; host or cells: washed guinea pig platelets
- Sequence (A0A286Y4I8 1-347): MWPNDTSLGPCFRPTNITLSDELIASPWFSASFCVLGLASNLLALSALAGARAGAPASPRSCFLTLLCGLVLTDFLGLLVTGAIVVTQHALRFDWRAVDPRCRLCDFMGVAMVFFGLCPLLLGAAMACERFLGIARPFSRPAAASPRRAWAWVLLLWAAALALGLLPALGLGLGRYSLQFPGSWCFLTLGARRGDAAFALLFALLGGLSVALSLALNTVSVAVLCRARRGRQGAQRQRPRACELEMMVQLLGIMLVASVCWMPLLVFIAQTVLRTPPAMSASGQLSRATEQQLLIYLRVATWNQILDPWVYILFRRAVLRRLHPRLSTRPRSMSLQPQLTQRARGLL
- ASSAY_TEXT: Binding study using 3H-U46619 (TXA2 receptor binding activities test)
- Set-up: species or system guinea pig
- ASSAY_SETUP: 20 min; test compound 1 μM; 12 nM 3H-U46619; washed guinea pig platelets; 37° C., 20 minutes; read-out: % Inhibition (3H-U46619 binding)
REPORTED_METRIC: inhibition at 1 µM (%)

{"columns": ["COMPOUND", "ASSAYED_SYSTEM", "REPORTED_METRIC", "ENDPOINT_UNIT", "VALUE"],
 "data": [
  ["O=C(O)c1ccc2c(c1)C(SCCN1CCC(Cc3ccccc3)CC1)c1ccccc1CO2 (stereo not shown) [Compound 38b]", "TXA2 receptor (Cavia porcellus)", "inhibition at 1 µM", "%", 81],
  ["CN(C)CCC=C1c2ccccc2COc2ccc(CC(=O)O)cc21 [Compound (B), reference compound]", "TXA2 receptor (Cavia porcellus)", "inhibition at 1 µM", "%", 1],
  ["O=C(O)c1ccc2c(c1)/C(=C/CN1CCN(CC=Cc3ccccc3)CC1)c1ccccc1CO2 [E-75b', hydrate]", "TXA2 receptor (Cavia porcellus)", "inhibition at 1 µM", "%", 85],
  ["O=C(O)c1ccc2c(c1)/C(=C/CN1CCN(c3ccc(F)cc3)CC1)c1ccccc1CO2 [Compound E-73b, monohydrate]", "TXA2 receptor (Cavia porcellus)", "inhibition at 1 µM", "%", 85]
]}
